System: H929 myeloma cells
Type: cell-based
Test settings: alanine scan and analogs, Table 4 legend, H929 cells
Assay endpoint: change in activity relative to the inverso peptide L-cINTEGRIN INTERACTION INHIBITORS

CSCC[C@@H]1NC(=O)CN(S(C)(=O)=O)CCNC(=O)[C@H](CCCCN)NC(=O)[C@H](CC(C)C)NC(=O)[C@H](CCCCN)NC(=O)[C@H](CC(C)C)NC(=O)[C@H](CCCCN)NC(=O)CN(S(C)(=O)=O)CCNC(=O)[C@H](C)NC(=O)[C@H](CO)NC(=O)[C@H](C(C)C)NC(=O)[C@H](C(C)C)NC1=O [III 2]; decrease in activity
CSCC[C@@H]1NC(=O)CN(S(C)(=O)=O)CCNC(=O)[C@H](CCCCN)NC(=O)[C@H](CC(C)C)NC(=O)[C@H](CCCCN)NC(=O)[C@H](CC(C)C)NC(=O)[C@H](CCCCN)NC(=O)CN(S(C)(=O)=O)CCNC(=O)[C@H](Cc2c[nH]c3ccccc23)NC(=O)[C@H](CO)NC(=O)[C@H](C)NC(=O)[C@H](C(C)C)NC1=O [III 4]; decrease in activity
